Recorded TBIL values for a group of molecules are listed next.
Species on record: Rattus norvegicus
Test: Open TG-GATES - Regimen: Daily Repeat
Type: toxicity, organism-based, Sprague-Dawley
Set-up: regimen Daily Repeat, gender Male, age 6 weeks
Conditions: in vivo, po, 0 mg/kg, 72 h, tissue Plasma, route gavage, dose level Control, time 3 day

Molecule	TBIL / mg/dL
Cc1cccc(Nc2ccccc2C(=O)O)c1C [MEFENAMIC ACID]	0.1
CC(CN1c2ccccc2Sc2ccccc21)N(C)C (stereo not given) [PROMETHAZINE]	0.005
CN(C)[C@@H]1C(O)=C(C(N)=O)C(=O)[C@@]2(O)C(O)=C3C(=O)c4c(O)cccc4[C@@](C)(O)[C@H]3C[C@@H]12 [TETRACYCLINE]	0.3
Clc1c(Cl)c(Cl)c(Cl)c(Cl)c1Cl [PERCHLOROBENZENE]	0.3
CC(=O)Nc1nnc(S(N)(=O)=O)s1 [ACETAZOLAMIDE]	0.008
C1CCC(C(CC2CCCCN2)C2CCCCC2)CC1 (stereo not given) [PERHEXILINE]	0.01
O=C(O)Cc1ccccc1Nc1c(Cl)cccc1Cl [DICLOFENAC]	0.2
CCOC(=O)[C@H](CCc1ccccc1)N[C@@H](C)C(=O)N1CCC[C@H]1C(=O)O	0.4
CN1C(C(=O)Nc2ccccn2)=C(O)c2sc(Cl)cc2S1(=O)=O [LORNOXICAM]	0.1
C#C[C@]1(O)CC[C@H]2[C@@H]3CCC4=Cc5oncc5C[C@]4(C)[C@H]3CC[C@@]21C [DANAZOL]	0.008

----------
Recorded Bas values for a group of compounds are listed next.
Organism: Rattus norvegicus
Experiment: Open TG-GATES - Regimen: Single
Format: toxicity, organism-based, Sprague-Dawley
Set-up: regimen Single, gender Male, age 6 weeks
Details: in vivo, po, 0 mg/kg, 9 h, tissue Blood, route gavage, dose level Control
Parameter measured: Bas (%)

Compound	Parameter measured	Unit info	Value reported
C1CCC(C(CC2CCCCN2)C2CCCCC2)CC1 (stereo not given)	Bas	%	0
CC(=O)Nc1nnc(S(N)(=O)=O)s1 [ACETAZOLAMIDE]	Bas	%	0
CN(C)[C@@H]1C(O)=C(C(N)=O)C(=O)[C@@]2(O)C(O)=C3C(=O)c4c(O)cccc4[C@@](C)(O)[C@H]3C[C@@H]12	Bas	%	0
C#C[C@]1(O)CC[C@H]2[C@@H]3CCC4=Cc5oncc5C[C@]4(C)[C@H]3CC[C@@]21C	Bas	%	0
CC(CN1c2ccccc2Sc2ccccc21)N(C)C (stereo not given)	Bas	%	0
Clc1c(Cl)c(Cl)c(Cl)c(Cl)c1Cl	Bas	%	0.2
CCOC(=O)[C@H](CCc1ccccc1)N[C@@H](C)C(=O)N1CCC[C@H]1C(=O)O	Bas	%	0
CN1C(C(=O)Nc2ccccn2)=C(O)c2sc(Cl)cc2S1(=O)=O	Bas	%	0.8
COc1cc([C@@H]2c3cc4c(cc3[C@@H](O[C@@H]3O[C@@H]5CO[C@@H](C)O[C@H]5[C@H](O)[C@H]3O)[C@H]3COC(=O)[C@H]23)OCO4)cc(OC)c1O [ETOPOSIDE]	Bas	%	0
Cc1cccc(Nc2ccccc2C(=O)O)c1C	Bas	%	0

----------
Organism: Rattus norvegicus
Assay: Open TG-GATES - Regimen: Daily Repeat
Assay type: toxicity, organism-based, Sprague-Dawley
Parameters: regimen Daily Repeat, gender Male, age 6 weeks
Settings: in vivo, po, 0 mg/kg, […], tissue Plasma, route gavage, dose level Control, time 14 day

Compound	A/G
Clc1c(Cl)c(Cl)c(Cl)c(Cl)c1Cl	1.8
Cc1cccc(Nc2ccccc2C(=O)O)c1C	1.5
CC(CN1c2ccccc2Sc2ccccc21)N(C)C (stereo unspecified)	1.2
CN(C)[C@@H]1C(O)=C(C(N)=O)C(=O)[C@@]2(O)C(O)=C3C(=O)c4c(O)cccc4[C@@](C)(O)[C@H]3C[C@@H]12	1.8
CN1C(C(=O)Nc2ccccn2)=C(O)c2sc(Cl)cc2S1(=O)=O	1.5
CCOC(=O)[C@H](CCc1ccccc1)N[C@@H](C)C(=O)N1CCC[C@H]1C(=O)O	1.6

----------
Organism: Rattus norvegicus
Test: Open TG-GATES - Regimen: Daily Repeat
Type: toxicity, organism-based, Sprague-Dawley
Parameters: regimen Daily Repeat, gender Male, age 6 weeks
Conditions: in vivo, po, 0 mg/kg, 72 h, tissue Blood, route gavage, dose level Control, time 3 day
Parameter measured: Eos (%)

Molecule	Parameter measured	Value reported
O=C(O)Cc1ccccc1Nc1c(Cl)cccc1Cl	Eos	1
CN1C(C(=O)Nc2ccccn2)=C(O)c2sc(Cl)cc2S1(=O)=O	Eos	1
C#C[C@]1(O)CC[C@H]2[C@@H]3CCC4=Cc5oncc5C[C@]4(C)[C@H]3CC[C@@]21C	Eos	0.8
CN(C)[C@@H]1C(O)=C(C(N)=O)C(=O)[C@@]2(O)C(O)=C3C(=O)c4c(O)cccc4[C@@](C)(O)[C@H]3C[C@@H]12	Eos	0.8
Cc1cccc(Nc2ccccc2C(=O)O)c1C	Eos	0.8
C1CCC(C(CC2CCCCN2)C2CCCCC2)CC1 (stereo not given)	Eos	0.8
Clc1c(Cl)c(Cl)c(Cl)c(Cl)c1Cl	Eos	1.2
CCOC(=O)[C@H](CCc1ccccc1)N[C@@H](C)C(=O)N1CCC[C@H]1C(=O)O	Eos	1
CC(=O)Nc1nnc(S(N)(=O)=O)s1 [ACETAZOLAMIDE]	Eos	1
CC(CN1c2ccccc2Sc2ccccc21)N(C)C (stereo not given)	Eos	1

----------
Recorded IP values for a group of compounds are listed next.
Species: Rattus norvegicus
Experiment: Open TG-GATES - Regimen: Single
Type: toxicity, organism-based, Sprague-Dawley
Parameters: regimen Single, gender Male, age 6 weeks
Settings: in vivo, po, 0 mg/kg, 24 h, tissue Plasma, route gavage, dose level Control

Compound	IP
CN1C(C(=O)Nc2ccccn2)=C(O)c2sc(Cl)cc2S1(=O)=O	7.3 mg/dL
CC(=O)Nc1nnc(S(N)(=O)=O)s1 [ACETAZOLAMIDE]	7.7 mg/dL
CCOC(=O)[C@H](CCc1ccccc1)N[C@@H](C)C(=O)N1CCC[C@H]1C(=O)O	8.5 mg/dL

----------
Species: Rattus norvegicus
Test: Open TG-GATES - Regimen: Single
Type: toxicity, organism-based, Sprague-Dawley
Design: regimen Single, gender Male, age 6 weeks
Settings: in vivo, po, 0 mg/kg, 3 h, tissue Plasma, route gavage, dose level Control
Parameter measured: GLC (mg/dL)

Molecule	Parameter measured	Value reported
Clc1c(Cl)c(Cl)c(Cl)c(Cl)c1Cl	GLC	187.2
CCOC(=O)[C@H](CCc1ccccc1)N[C@@H](C)C(=O)N1CCC[C@H]1C(=O)O	GLC	196.6
C1CCC(C(CC2CCCCN2)C2CCCCC2)CC1 (stereo not given)	GLC	192.6
Cc1cccc(Nc2ccccc2C(=O)O)c1C	GLC	190.4
C#C[C@]1(O)CC[C@H]2[C@@H]3CCC4=Cc5oncc5C[C@]4(C)[C@H]3CC[C@@]21C	GLC	187.6

----------
Organism: Rattus norvegicus
Test: Open TG-GATES - Regimen: Daily Repeat
Format: toxicity, organism-based, Sprague-Dawley
Design: regimen Daily Repeat, gender Male, age 6 weeks
Settings: in vivo, po, 0 mg/kg, […], tissue Blood, route gavage, dose level Control, time 14 day

Compound	WBC / x10_2/uL
CN(C)[C@@H]1C(O)=C(C(N)=O)C(=O)[C@@]2(O)C(O)=C3C(=O)c4c(O)cccc4[C@@](C)(O)[C@H]3C[C@@H]12	131
C1CCC(C(CC2CCCCN2)C2CCCCC2)CC1 (centres undefined)	97.2
Clc1c(Cl)c(Cl)c(Cl)c(Cl)c1Cl	160.8
CC(CN1c2ccccc2Sc2ccccc21)N(C)C (centres undefined)	127.7
CN1C(C(=O)Nc2ccccn2)=C(O)c2sc(Cl)cc2S1(=O)=O	100
Cc1cccc(Nc2ccccc2C(=O)O)c1C	111.1
C#C[C@]1(O)CC[C@H]2[C@@H]3CCC4=Cc5oncc5C[C@]4(C)[C@H]3CC[C@@]21C	122.1
O=C(O)Cc1ccccc1Nc1c(Cl)cccc1Cl	92.1
CCOC(=O)[C@H](CCc1ccccc1)N[C@@H](C)C(=O)N1CCC[C@H]1C(=O)O	143.8

----------
Organism: Rattus norvegicus
Test: Open TG-GATES - Regimen: Single
Type: toxicity, organism-based, Sprague-Dawley
Parameters: regimen Single, gender Male, age 6 weeks
Details: in vivo, po, 0 mg/kg, 6 h, tissue Blood, route gavage, dose level Control
Recorded Bas values for a group of compounds are listed next.
Parameter measured: Bas (%)

Compound	Parameter measured	Unit info	Value reported
Cc1cccc(Nc2ccccc2C(=O)O)c1C	Bas	%	0
CN(C)[C@@H]1C(O)=C(C(N)=O)C(=O)[C@@]2(O)C(O)=C3C(=O)c4c(O)cccc4[C@@](C)(O)[C@H]3C[C@@H]12	Bas	%	0
CN1C(C(=O)Nc2ccccn2)=C(O)c2sc(Cl)cc2S1(=O)=O	Bas	%	0.8
COc1cc([C@@H]2c3cc4c(cc3[C@@H](O[C@@H]3O[C@@H]5CO[C@@H](C)O[C@H]5[C@H](O)[C@H]3O)[C@H]3COC(=O)[C@H]23)OCO4)cc(OC)c1O [ETOPOSIDE]	Bas	%	0
CC(CN1c2ccccc2Sc2ccccc21)N(C)C (stereo not given)	Bas	%	0
Clc1c(Cl)c(Cl)c(Cl)c(Cl)c1Cl	Bas	%	0.2
CC(=O)Nc1nnc(S(N)(=O)=O)s1 [ACETAZOLAMIDE]	Bas	%	0
C#C[C@]1(O)CC[C@H]2[C@@H]3CCC4=Cc5oncc5C[C@]4(C)[C@H]3CC[C@@]21C	Bas	%	0
CCOC(=O)[C@H](CCc1ccccc1)N[C@@H](C)C(=O)N1CCC[C@H]1C(=O)O	Bas	%	0
C1CCC(C(CC2CCCCN2)C2CCCCC2)CC1 (stereo not given)	Bas	%	0
